system: Salmonella paratyphi; experiment: Antibacterial activity against Salmonella paratyphi assessed as zone of inhibition at 100 ug/well measured after 24 hrs by agar well diffusion method; format: functional, Salmonella enterica subsp. enterica serovar Paratyphi A; conditions: Salmonella enterica, read-out: DIZ
QUANTITY NAME: zone of inhibition at 100 µg/disc

| COMPOUND | READOUT VALUE |
| --- | --- |
| CC1(C)O[C@H]2O[C@@H]3COC(c4ccc(C=O)cc4)O[C@@H]3[C@H]2O1 (some centres not stated) | 0 mm |
| CC1(C)O[C@H]2O[C@@H]3COB(c4cccc(/N=C/c5cc([N+](=O)[O-])ccc5O)c4)O[C@@H]3[C@H]2O1 | 21 mm |
| CC1(C)O[C@H]2O[C@@H]3COB(c4cccc(/C=N/c5ccc(Br)cc5)c4)O[C@@H]3[C@H]2O1 | 21 mm |
| O=[N+]([O-])c1ccc(O)c(/C=N/c2cccc(B(O)O)c2)c1 | 0 mm |
| CC1(C)O[C@H]2O[C@@H]3COB(c4cccc(/N=C/c5cc(Br)ccc5O)c4)O[C@@H]3[C@H]2O1 | 14 mm |
| CC(C)c1ccc(/N=C/c2cccc(B3OC[C@H]4O[C@@H]5OC(C)(C)O[C@@H]5[C@H]4O3)c2)cc1 | 21 mm |
| CC1(C)O[C@H]2O[C@@H]3COC(c4cccc(C=O)c4)O[C@@H]3[C@H]2O1 (some centres not stated) | 0 mm |
